- TESTED TARGET: TDO2 (Homo sapiens, UniProt P48775)
- Construct: decreased levels of NFK in SW48 cells (high TDO expressing cells)
- Sequence (P48775 whole entry): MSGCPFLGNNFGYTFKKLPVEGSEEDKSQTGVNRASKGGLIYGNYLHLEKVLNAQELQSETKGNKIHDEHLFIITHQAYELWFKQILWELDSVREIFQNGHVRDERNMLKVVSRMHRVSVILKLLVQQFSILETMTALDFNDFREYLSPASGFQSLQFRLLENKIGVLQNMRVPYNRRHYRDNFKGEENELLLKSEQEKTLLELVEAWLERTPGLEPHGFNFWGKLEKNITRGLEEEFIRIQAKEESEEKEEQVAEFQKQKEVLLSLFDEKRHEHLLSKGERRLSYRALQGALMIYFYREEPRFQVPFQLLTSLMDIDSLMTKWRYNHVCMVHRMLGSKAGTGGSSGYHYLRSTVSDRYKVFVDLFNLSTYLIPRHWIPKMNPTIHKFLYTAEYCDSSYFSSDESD
- PROCEDURE DETAILS: TDO2 cell assay (NFK GreenScreen, SW48 cells)
- Assay type: cell-based
- TEST PARAMETERS: SW48 cells (high TDO expressing), 200 uM tryptophan, 24 hours; Table 3; read-out: TDO2 Cell Fluor EC50
PROPERTY: EC50 (nM)
Numeric only. Scale: nM

In the examples that follow, each entry is paired with its recorded EC50.
COMPOUND | MEASUREMENT UNITS | EC50
CC1(C)CCCC(C2c3ccccc3-c3cncn32)C1O (single isomer, unassigned) [Example 24g] | nM | 340
CC1(O)CCOCC1C1c2ccccc2-c2cncn21 (single isomer, unassigned) [Example 61b] | nM | 2600
OC1c2cccn2CCC1C1c2ccccc2-c2cncn21 (single isomer, unassigned) [Example 136e] | nM | 640

Now for another entry.
Request: Quick one: EC50 of CC1(C)CCCC(C2c3ccccc3-c3cncn32)C1O (single isomer, unassigned) [Example 24d] ?
Response: 1100

---

- TESTED TARGET: TDO2 (Homo sapiens, UniProt P48775)
- Construct: decreased levels of NFK in SW48 cells (high TDO expressing cells)
- PROCEDURE DETAILS: TDO2 cell assay (NFK GreenScreen, SW48 cells)
- Type: cell-based
- TEST PARAMETERS: SW48 cells (high TDO expressing), 200 uM tryptophan, 24 hours; Table 3; read-out: TDO2 Cell Fluor EC50
PROPERTY: pEC50
For clarity, pEC50 is expressed as the negative log10 of concentration in mol/L.

In the examples that follow, each entry is paired with its recorded pEC50.
MOLECULE | pEC50
OC1CCCC1C1c2ccccc2-c2cncn21 (single isomer, unassigned) [Example 02g] | 6.47
OC1C(C2c3ccccc3-c3cncn32)CC12CCOCC2 (single isomer, unassigned) [Example 57e] | 7.11
OC1CCC(F)(F)CC1C1c2ccccc2-c2cncn21 (single isomer, unassigned) [Example 18h] | 4.89

Request: Quick one: pEC50 of OC1CCC1C1c2ccccc2-c2cncn21 (single isomer, unassigned) [Example 01g] ?
Response: 5.48

Request: Subsequent entry: CS(=O)(=O)N1CC[C@@H]([C@@H]2c3ccccc3-c3cncn32)[C@H](O)C1 (single isomer, unassigned) [Example 64b]
Response: 7.06

---

- TESTED TARGET: TDO2 (Homo sapiens)
- Construct: decreased levels of NFK in SW48 cells (high TDO expressing cells)
- PROCEDURE DETAILS: TDO2 cell assay (NFK GreenScreen, SW48 cells)
- Type: cell-based
- TEST PARAMETERS: SW48 cells (high TDO expressing), 200 uM tryptophan, 24 hours; Table 3; read-out: TDO2 Cell Fluor EC50
List of EC50 values.
Numeric only. Scale: nM

In the examples that follow, each entry is paired with its recorded EC50.
COMPOUND | PROPERTY | MEASUREMENT UNITS | ASSAY RESULT
CCS(=O)(=O)N1CCC2(CC1)CC(C1c3ccccc3-c3cncn31)C2O (single isomer, unassigned) [Example 114a] | EC50 | nM | 390
NC(=O)c1ccc2c(c1)C(O)C(C1c3ccccc3-c3cncn31)CC2 (single isomer, unassigned) [Example 122d] | EC50 | nM | 370
NC(=O)c1nc2c(s1)CCC(C1c3ccccc3-c3cncn31)C2O (single isomer, unassigned) [Example 149b] | EC50 | nM | 55
CCC(O)C1c2ccccc2-c2cncn21 (single isomer, unassigned) [Example 137c] | EC50 | nM | 200

Now for another entry.
Request: Quick one: EC50 of OC1CCOCC1C1c2c(F)cccc2-c2cncn21 (single isomer, unassigned) [Example 73c] ?
Response: 340
